Assay: NCI Yeast Anticancer Drug Screen. Data for the bub3 strain (AID 167)
Details: S. cerevisiae bub3 mutant strain, at 50.0 µM (retest, dose inferred, filed as 5.0), active compounds read high
The panel holds about 79,000 compounds, 15% with a hit somewhere; the sample as a whole holds those more often.
Label Y when growth inhibition is at or above 90%; anything below gets N.

Tell me whether growth inhibition is at least 90% here: S=c1[nH]c2cc(-c3ccccc3)ccc2o1
N

Follow-up item: CC12CC[C@@H](C(C)(C)O)C1[C@@H](O)CC1(C)C2CCC2[C@@]3(C)CC[C@H](O)C(C)(C)C3C(O)C[C@]21C (some centres not stated)
Y

Follow-up item: CC(=O)c1ccc2c(c1)CC1(C2)Cc2ccccc2C1=O (configuration not stated)
N

More entries:
Tell me whether growth inhibition is at least 90% here: O=C1C(Cl)=C(N2CCN(c3ccccn3)CC2)C(=O)c2ncccc21
Y

Follow-up item: Clc1ccc(C(CCOc2ccccc2Br)Cn2ccnc2)c(Cl)c1 (configuration not stated)
Y

Follow-up item: O=P1(NCC2CCCO2)OCC2(CO1)COP(=O)(NCC1CCCO1)OC2 (configuration not stated)
Y

Follow-up item: [Pt].c1ccc([PH+](CC[PH+](CC[PH+](c2ccccc2)c2ccccc2)CC[PH+](c2ccccc2)c2ccccc2)c2ccccc2)cc1
Y

Follow-up item: CCOC(=O)C[n+]1c(C)sc2ccccc21
N

Follow-up item: O=C(c1ccccc1)c1ccc(Cl)cc1
N

----------
Listed below: growth inhibition values for each entry.
Assay: NCI Yeast Anticancer Drug Screen. Data for the mec2-1 strain (AID 157)
Conditions: S. cerevisiae mec2-1 strain, at 50.0 µM (retest, dose inferred, filed as 5.0), active compounds read high
About 79,000 compounds went through this panel and 15% of them were active in at least one assay; those are over-represented in the sample as a whole. The source made the active and inactive calls. Cut-off read from the data, not from the text of the source: active = growth inhibition above about 70%; inactive = the rest.

Sample Cc1cc(SCC(=O)c2ccccc2)cc(C)[o+]1 — what was its growth inhibition?
80% (active)

Follow-up item: O=C1C(Cl)=C(Cl)C(=O)C2CC=CCC12 (centres undefined)
99% (active)

Follow-up item: O=C1Nc2ccccc2SC1c1ccccc1 (centres undefined)
99% (active)

Follow-up item: CC1=C(C(=O)OCCO[N+](=O)[O-])C(c2cccc([N+](=O)[O-])c2)C(C(=O)OC(C)C)=C(C)N1 (centres undefined)
92% (active)

Follow-up item: Cc1c2ncccc2cc2oc3ccccc3c(=O)c12
78% (active)

----------
Assay: NCI Yeast Anticancer Drug Screen. Data for the cln2 rad14 strain (AID 165);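 note: 0% = growth equal to vehicle treated cultures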
Conditions: S. cerevisiae cln2 rad14 strain, at 5.0 µM (retest, dose inferred, filed as 0.5)
The panel holds about 79,000 compounds, 15% with a hit somewhere; the sample as a whole holds those more often. Activity calls are given as the source filed them. Rule as the data show it: active = growth inhibition above about 70%; inactive = the rest.
The reply should name one outcome from active, inactive

Here's what some known entries look like.
What call does the record list for Oc1cc2c(cc1C(Nc1ncccn1)c1ccc(F)cc1)OCO2 (stereo not given) ?
inactive

Follow-up item: COC(=O)C(O)(/C(=N\O)c1ccccc1)c1ccccc1 (stereo not given)
inactive

Follow-up item: O=[N+]([O-])C1C2C=CC(C2)[C@H]1c1ccc(Cl)cc1Cl (stereo not given in full)
inactive

Follow-up item: CC1/C(=N\O)CC(c2ccccc2)N(C)C1c1ccccc1 (stereo not given)
inactive

Follow-up item: CCCCN1CSC(=S)N(Cc2ccccc2)C1
inactive

More entries:
What call does the record list for Cc1cc(=O)c2c(ccc3cc4ccccc4cc32)[nH]1 ?
inactive

Follow-up item: CCN(CC)CCCNc1ccc([N+](=O)[O-])c2nc3ccc(OC)cc3c(N)c12
inactive

Follow-up item: CCc1ccc(C(=O)O)cc1
inactive
